Where do the numbers come from? From patent US10736965B2.

Assay: In vitro drug release assay from 50:50 PLGA pellets, fit to equation (4)
Assay type: physicochemical
Settings: fit of FIG. 10 data to equation (4); 50:50 PLGA, 20% drug load
Experimental: 400 mg of 50:50 PLGA and 100 mg of drug were solvent cast to obtain a 20% by mass drug-load. […] Pellets were carefully weighed and measured to determine densities. […] Assays were performed in triplicate using three of each set of four uniform pellets. […] 1-mL aliquots of were analyzed by UV Spectroscopy at fixed time intervals and. […]
readout kind: k (degradation reaction rate)

Solved cases (3 shown):
INSERT INTO results (molecule, readout_kind, result) VALUES
  ('CC(C)Cc1ccc(C(C)C(=O)O)cc1 (stereo not drawn) [Ibuprofen]', 'k (degradation reaction rate)', '0.16 day⁻¹'),
  ('CC(=O)Oc1ccccc1C(=O)O [Aspirin, 2-acetyloxybenzoic acid]', 'k (degradation reaction rate)', '0.06 day⁻¹'),
  ('CC12CCC(=O)C=C1CCC1C2C(O)CC2(C)C(C(=O)CO)CCC12 (stereo not drawn) [Corticosterone]', 'k (degradation reaction rate)', '0.33 day⁻¹');

*Q* Form field: reported k (degradation reaction rate) of NS(=O)(=O)c1cc2c(cc1Cl)NCNS2(=O)=O [HCTZ]
*A* 0.26 day⁻¹

*Q* Ok, now CN1CCN(CCC=C2c3ccccc3Sc3ccc(S(=O)(=O)N(C)C)cc32)CC1 [Thiothixene]
*A* 0.06 day⁻¹

*Q* Please answer likewise for O=C(CCCN1CCC(O)(c2ccc(Cl)cc2)CC1)c1ccc(F)cc1 [Haloperidol]
*A* 0.07 day⁻¹

* * *

Listed here are molecules together with their documented solubility at 14 days.
Test: Drug solubility in water
Type: physicochemical
Conditions: thermodynamic from solid; measured after 14 days, distilled water, 21° C.

INSERT INTO assay_data (molecule, readout_kind, result) VALUES
  ('CC(C)Cc1ccc(C(C)C(=O)O)cc1 (stereo not shown)', 'solubility at 14 days', '470 µg/mL'),
  ('CC12CCC(=O)C=C1CCC1C2C(O)CC2(C)C(C(=O)CO)CCC12 (stereo not shown)', 'solubility at 14 days', '500 µg/mL'),
  ('O=C(CCCN1CCC(O)(c2ccc(Cl)cc2)CC1)c1ccc(F)cc1', 'solubility at 14 days', '130 µg/mL');

Turning now to a further record.
*Q* Param item = CN1CCN(CCC=C2c3ccccc3Sc3ccc(S(=O)(=O)N(C)C)cc32)CC1 ; retrieve measured solubility at 14 days.
*A* 140 µg/mL

* * *

Assay: in vivo
Settings: rabbit
readout kind: half-life

*Q* // lookup half-life for O=C(CCCN1CCC(O)(c2ccc(Cl)cc2)CC1)c1ccc(F)cc1
*A* ~2.17 h
